Experiment: Quantitative High-Throughput drug screen in 47 multiple myeloma cell lines against the NCATS MIPE library collection: MM1R_ATCC cell viability assay (AID 1918981); further: nearly all actives have a fitted effect of over 35% in size
Conditions: MM1R multiple myeloma cells, CellTiter-Glo viability, 48 h; series mostly up to 45.8 µM
Inconclusive results are not listed. Active and inactive are the calls of the source. The call rests on the fitted dose curve; in most records, active means well fitted cell-killing curve with a large enough effect; inconclusive means small, poorly fitted or top-dose-only effect, or effect the other way; inactive means no such curve, though single readings can be large or run the other way.
Your response should consist of one outcome taken from yes (active), no (inactive)

| Chemical String | Label |
| --- | --- |
| Cc1cc(N2CCOCC2)cc2[nH]c(-c3c(NC[C@@H](O)c4cccc(Cl)c4)cc[nH]c3=O)nc12 | yes |
| CN(c1ncccc1CNc1nc(Nc2ccc3c(c2)CC(=O)N3)ncc1C(F)(F)F)S(C)(=O)=O | yes |
| CNC(=O)c1ccccc1Nc1nc(Nc2ccc(N3CCOCC3)cc2OC)ncc1Cl | yes |
| Nc1ccccc1NC(=O)c1ccc(CNc2nccc(-c3cccnc3)n2)cc1 | yes |
| COc1cc2c(cc1-c1c(C)noc1C)ncc1[nH]c(=O)n([C@H](C)c3ccccn3)c12 | yes |
| CC(=O)Nc1sc2c(c1-c1nc3ccccc3s1)CNC2 | yes |
| CC(=O)SC[C@@H](C)C(=O)N1CCC[C@H]1C(=O)N[C@@H](Cc1ccccc1)C(=O)O | no |
| OCc1ccc(-c2ccc(-c3ccc(CO)s3)o2)s1 | yes |

Q: Which outcome was entered for the molecule `O=C(NCCCNc1nc(Nc2cccc(NC(=O)N3CCCC3)c2)ncc1I)c1cccs1` in this test?
A: yes

Q: Which outcome was entered for the molecule `Clc1ccc2ncc(-c3cccc(NC4CNC4)n3)n2c1` in this test?
A: yes
